- Measurement target: HLA-A*01:01
- Run description: IEDB peptide-MHC binding, purified MHC/competitive/radioactivity; filed as Kd, often an IC50 or EC50 that approximates it; bounds were set here for any values at or beyond the usual limits of such assays
- Test conditions: source organism: Vaccinia virus WR
Measurement name: Kd

# input Which measured Kd belongs to KTSTLIFFV , tested on HLA-A*01:01?
# output 1880 nM

====

- Measurement target: HLA-A*02:01
- Run description: IEDB peptide-MHC binding, purified MHC/competitive/fluorescence; filed as Kd, often an IC50 or EC50 that approximates it; bounds were set here for any values at or beyond the usual limits of such assays
- Test conditions: source organism: Human immunodeficiency virus 1
Measurement name: pKd
By convention, pKd is the negative base-10 log of a molar concentration.

# input Look up pKd: VLYCVHQEI
# output 8.15

# input Look up pKd: FLGKIWSS
# output 8.12

# input Look up pKd: SLVKHHMYV
# output 8.13

# input Look up pKd: IEVKDTKEAL
# output 6.17

====

What Kd was measured for each of the following?
- Measurement target: HLA-B*44:02
- Run description: IEDB peptide-MHC binding, purified MHC/competitive/radioactivity; filed as Kd, often an IC50 or EC50 that approximates it; bounds were set here for any values at or beyond the usual limits of such assays
- Test conditions: source organism: Mammarenavirus lassaense

# input Which measured Kd belongs to KEAYCQEFFL , tested on HLA-B*44:02?
# output 520 nM

# input Which measured Kd belongs to KDPLITSGC , tested on HLA-B*44:02?
# output ≥ 77900 nM

====

- Measurement target: HLA-A*03:19
- Run description: IEDB peptide-MHC binding, purified MHC/competitive/fluorescence; filed as Kd, often an IC50 or EC50 that approximates it; bounds were set here for any values at or beyond the usual limits of such assays
- Test conditions: source organism: Mycobacterium tuberculosis variant bovis BCG str. Pasteur 1173P2
Measurement name: Kd
Returns: string containing the number followed by the unit.

# input Look up Kd: RWRWFRAAM
# output 0.814 µM

====

- Measurement target: HLA-A*11:01
- Run description: IEDB peptide-MHC binding, purified MHC/competitive/radioactivity; filed as Kd, often an IC50 or EC50 that approximates it; bounds were set here for any values at or beyond the usual limits of such assays
- Test conditions: source organism: Dengue virus 4 Philippines/H241/1956
Measurement name: Kd (nM)
State just the number; it will be interpreted in nM.

# input Which measured Kd belongs to VSLLGSALLK , tested on HLA-A*11:01?
# output 45.3

# input Which measured Kd belongs to MVLAFITFLR , tested on HLA-A*11:01?
# output 971

# input Which measured Kd belongs to HVQTKPGLFK , tested on HLA-A*11:01?
# output 389

====

- Measurement target: HLA-C*06:02
- Run description: IEDB peptide-MHC binding, purified MHC/direct/fluorescence; filed as Kd, often an IC50 or EC50 that approximates it; bounds were set here for any values at or beyond the usual limits of such assays
- Test conditions: source organism: Yersinia pestis Nepal516
Measurement name: Kd

# input Look up Kd: TVYPKTHYV
# output 0.035 µM

====

- Measurement target: HLA-A*11:01
- Run description: IEDB peptide-MHC binding, purified MHC/direct/fluorescence; filed as Kd, often an IC50 or EC50 that approximates it; bounds were set here for any values at or beyond the usual limits of such assays
- Test conditions: source organism: Giardia lamblia ATCC 50803
Measurement name: Kd

# input Look up Kd: DIIRAHPWF
# output ≥ 20 µM

# input Look up Kd: SYPPPPASF
# output ≥ 20 µM

Entry source: the Immune Epitope Database (IEDB)
